- Tested on: Leishmania major
- assay-summary: Antileishmanial activity against Leishmania major IR-173 promastigotes assessed as inhibition of parasite growth incubated for 72 hrs by resazurin dye based assay
- Assay type: functional, organism-based
- condition-label: IR-173, 72 h
pIC50: −log10 of the molar value.
Use 5 as the dividing line for pIC50, with the line itself on the Satisfied side and lower values as Not satisfied.

Take a look at these entries with their results.
COc1ccc2nc3cc(Cl)ccc3c(NCCNCCO[C@H]3O[C@@H]4O[C@@]5(C)CC[C@H]6[C@H](C)CC[C@@H]([C@H]3C)[C@@]46OO5)c2c1 | Satisfied
CO[C@H]1O[C@@H]2O[C@@]3(C)CC[C@H]4[C@H](C)CC[C@@H]([C@H]1C)[C@@]24OO3 | Not satisfied
C[C@@H]1CC[C@H]2C(C)(C=O)O[C@@H]3O[C@@]4(C)CC[C@@H]1[C@]32OO4 (some centres not stated) | Not satisfied

// next entry
Ask: // inclusive: pIC50 at least 5? input: C[C@@H]1CC[C@H]2C(C)(COC(=O)CCc3ccccc3)O[C@@H]3O[C@@]4(C)CC[C@@H]1[C@]32OO4 (some centres not stated)
Reply: Satisfied
